# procedure-text: Metabolic stability in liver microsomes
# Format: in vitro ADME
# experimental-conditions: cynomolgus monkey; Cynomolgus monkeys liver microsomes; read-out: CLint(mic)
Listed next: entries and their corresponding microsomal CLint at 1 μM.

> print(dat)
                            molecule.smiles     experimental.endpoint           result
1  C[C@]1(NC(=O)C(=O)c2c(Cl)c(C(=O)Nc3cc(F)c(F)c(F)c3)c3n2CCC3)CC[C@H](CC(=O)O)CC1  microsomal CLint at 1 μM  < 9.6 µL/min/mg

Consider now this further compound.
Q: Can you look up the measured microsomal CLint at 1 μM of C[C@]1(NC(=O)C(=O)c2c(Cl)c(C(=O)Nc3ccc(F)c(F)c3)c3n2CCC3)CC[C@H](CC(=O)O)CC1 for me?
Result: < 9.6 µL/min/mg
